- study-system: MHC DR2 (DRB1*1501/DRA*0101) (Homo sapiens, UniProt P01903+P01911)
- Construct: endogenous in cells
- experimental-details: HLA II Binding Assay (competition with biotinylated reference peptide)
- condition-label: purified HLA-DR, biotinylated reference compound for DRB1*1501, 37° C. 24 h to 72 h; read-out: Inhibition of peptide binding IC50 (against MHC DR2 (DRB1*1501/DRA*0101))
Square brackets hold non-standard residues; d marks the D form. Peptide text beside a SMILES is read from it. * marks the point of attachment. Trp(1-Me) = Cn1cc(C[C@H](N)C(=O)O)c2ccccc21; Oic = O=C(O)[C@@H]1C[C@@H]2CCCC[C@@H]2N1; Phe(4-F) = N[C@@H](Cc1ccc(F)cc1)C(=O)O; Gly(cPent) = N[C@H](C(=O)O)C1CCCC1; Tic = O=C(O)[C@@H]1Cc2ccccc2CN1; Cit = NC(=O)NCCC[C@H](N)C(=O)O; Chg = N[C@H](C(=O)O)C1CCCCC1; Tle = CC(C)(C)[C@H](N)C(=O)O; X3 = c1cc2cc(CCN*)ccc2[nH]1; X6 = c1ccc2[nH]c(CCN*)cc2c1; Pip = O=C(O)[C@@H]1CCCCN1; Morpholide = C1CN(*)CCO1; Abu = CC[C@H](N)C(=O)O; Sar = CNCC(=O)O
quantity-kind: IC50

These recorded examples may help you get a feel for the data.
CC(=O)N[C@H](C(=O)N[C@H](C(=O)N[C@@H](CCCNC(=N)N)C(=O)N1CCCC[C@H]1C(=O)N[C@@H](Cc1ccccc1)C(N)=O)C1CCCCC1)C(C)C [AcV(Chg)R(homo Pro)F] (Ac-V[Chg]R[Pip]F-NH2) :: 0.01 to 0.1 µM
CNCC(=O)N[C@H](C(=O)N[C@H](C(=O)N[C@@H](CCCNC(N)=O)C(=O)N1Cc2ccccc2C[C@H]1C(=O)N[C@@H](Cc1ccccc1)C(N)=O)C1CCCCC1)C(C)C [(NH2-Sar)V(Chg)(Cit)(Tic)F] (H-[Sar]V[Chg][Cit][Tic]F-NH2) :: 0.001 to 0.01 µM
CC(=O)N[C@H](C(=O)N[C@H](C(=O)N[C@@H](CCCNC(=N)N)C(=O)N1Cc2ccccc2C[C@H]1C(=O)N[C@@H](Cc1ccccc1)C(=O)O)C1CCCCC1)C(C)C [AcV(Chg)R(Tic)F-COOH] (Ac-V[Chg]R[Tic]F-OH) :: 0.01 to 0.1 µM

Enquiry: Report IC50 for CC[C@H](N)C(=O)N[C@H](C(=O)N[C@H](C(=O)N[C@@H](CCCNC(N)=O)C(=O)N1Cc2ccccc2C[C@H]1C(=O)N[C@@H](Cc1ccccc1)C(N)=O)C1CCCCC1)C(C)C [(NH2-Abu)V(Chg)(Cit)(Tic)F] (H-[Abu]V[Chg][Cit][Tic]F-NH2) please.
Return: 0.001 to 0.01 µM

Enquiry: // repeat for CC(=O)N[C@H](C(=O)N[C@H](C(=O)N[C@@H](CCCNC(=N)N)C(=O)N1Cc2ccccc2C[C@H]1C(=O)N[C@@H](Cc1ccc(F)cc1)C(N)=O)C1CCCCC1)C(C)C [AcV(Chg)R(Tic)(4′-F Phe)] (Ac-V[Chg]R[Tic][Phe(4-F)]-NH2) and report
Return: 0.001 to 0.01 µM

Enquiry: // repeat for CC(C)[C@H](NC(=O)CN)C(=O)N[C@H](C(=O)N[C@@H](CCCNC(=N)N)C(=O)N1Cc2ccccc2C[C@H]1C(=O)N[C@@H](Cc1ccccc1)C(N)=O)C1CCCCC1 [(NH2-Gly)V(Chg)R(Tic)F] (H-GV[Chg]R[Tic]F-NH2) and report
Return: 0.001 to 0.01 µM

Enquiry: // repeat for CC(=O)N[C@H](C(=O)N[C@@H](CCCNC(=N)N)C(=O)N1Cc2ccccc2C[C@H]1C(=O)N[C@@H](Cc1cn(C)c2ccccc12)C(N)=O)C1CCCCC1 [Ac(Chg)R(Tic)(1-Me-Trp)] (Ac-[Chg]R[Tic][Trp(1-Me)]-NH2) and report
Return: 0.1 to 1 µM

Enquiry: // repeat for CC(=O)N[C@H](C(=O)N[C@H](C(=O)N[C@@H](CCCNC(=N)N)C(=O)N1Cc2ccccc2C[C@H]1C(=O)N[C@@H](Cc1c[nH]c2ccccc12)C(N)=O)C1CCCCC1)C(C)C [AcV(Chg)R(Tic)(Trp)] (Ac-V[Chg]R[Tic]W-NH2) and report
Return: 0.001 to 0.01 µM

Enquiry: // repeat for CC(=O)N[C@H](C(=O)N[C@H](C(=O)N[C@@H](CCCNC(N)=O)C(=O)N1Cc2ccccc2C[C@H]1C(=O)N[C@@H](Cc1ccccc1)C(N)=O)C1CCCCC1)C(C)C [AcV(Chg)(Cit)(Tic)F] (Ac-V[Chg][Cit][Tic]F-NH2) and report
Return: 0.001 to 0.01 µM

Enquiry: // repeat for CC(=O)N[C@H](C(=O)N[C@@H](CCCNC(=N)N)C(=O)N1Cc2ccccc2C[C@H]1C(=O)N[C@@H](Cc1ccccc1)C(=O)N1CCCC[C@H]1C(=O)O)C1CCCC1 [Ac(Cpg)R(Tic)F(homo Pro)COOH] (Ac-[Gly(cPent)]R[Tic]F[Pip]-OH) and report
Return: 0.01 to 0.1 µM

Enquiry: // repeat for CC(=O)N[C@H](C(=O)N[C@H](C(=O)N[C@@H](CCCNC(=N)N)C(=O)N1Cc2ccccc2C[C@H]1C(=O)NCCc1ccc2[nH]ccc2c1)C1CCCCC1)C(C)C [AcV(Chg)R(Tic)(5-ethylaminoindole)] (Ac-V[Chg]R[Tic]-X3) and report
Return: 0.1 to 1 µM

Enquiry: // repeat for CC(=O)N[C@H](C(=O)N[C@H](C(=O)N[C@@H](CCCNC(=N)N)C(=O)N1Cc2ccccc2C[C@H]1C(=O)N[C@@H](Cc1ccccc1)C(N)=O)C1CCCCC1)C(C)(C)C [Ac(t-BuG)(Chg)R(Tic)F] (Ac-[Tle][Chg]R[Tic]F-NH2) and report
Return: 0.001 to 0.01 µM

Enquiry: // repeat for CC(=O)N[C@H](C(=O)N[C@H](C(=O)N[C@@H](CCCNC(=N)N)C(=O)N1Cc2ccccc2C[C@H]1C(=O)NCCc1cc2ccccc2[nH]1)C1CCCCC1)C(C)C [AcV(Chg)R(Tic)(2-ethylaminoindole)] (Ac-V[Chg]R[Tic]-X6) and report
Return: 0.1 to 1 µM

Enquiry: // repeat for CC(=O)N[C@H](C(=O)N[C@H](C(=O)N[C@@H](CCCNC(=N)N)C(=O)N1Cc2ccccc2C[C@H]1C(=O)N[C@@H](Cc1ccccc1)C(=O)N1CCOCC1)C1CCCCC1)C(C)C [AcV(Chg)R(Tic)F-CO(morpholine)] (Ac-V[Chg]R[Tic]F-Morpholide) and report
Return: 0.01 to 0.1 µM

Enquiry: // repeat for CC(=O)N[C@H](C(=O)N[C@H](C(=O)N[C@@H](CCCNC(=N)N)C(=O)N1[C@H](C(=O)N[C@@H](Cc2ccccc2)C(N)=O)C[C@@H]2CCCC[C@@H]21)C1CCCCC1)C(C)C [AcV(Chg)R(Oic)F] (Ac-V[Chg]R[Oic]F-NH2) and report
Return: 0.1 to 1 µM

Enquiry: // repeat for CC(C)[C@H](NC(=O)CN)C(=O)N[C@H](C(=O)N[C@@H](CCCNC(N)=O)C(=O)N1Cc2ccccc2C[C@H]1C(=O)N[C@@H](Cc1ccccc1)C(N)=O)C1CCCCC1 [(NH2-Gly)V(Chg)(Cit)(Tic)F] (H-GV[Chg][Cit][Tic]F-NH2) and report
Return: 0.001 to 0.01 µM
